test system: Saccharomyces cerevisiae; assay: protein stability index of tFT-peptide fusion (C-terminal peptide) (PSI (0-1 scale)); higher = more stable (slower turnover); details: genetic background: das1 deletion; temperature: 37 C
ASSAY_METRIC: protein stability index

ENTRY_SEQUENCE: WRMRCGLIIGLV
VALUE_MEASURED: 0.164
//
ENTRY_SEQUENCE: EMPRLSKAIRVT
VALUE_MEASURED: 0.603
//
ENTRY_SEQUENCE: FLCVLYFFLCVE
VALUE_MEASURED: 0.404
//
ENTRY_SEQUENCE: RSCKSIRGIFVC
VALUE_MEASURED: 0.719
//
ENTRY_SEQUENCE: FGVLGCAWVWVG
VALUE_MEASURED: 0.625
//
ENTRY_SEQUENCE: AISLPVEVLAFS
VALUE_MEASURED: 0.438
//
ENTRY_SEQUENCE: SQKKKIKKYKET
VALUE_MEASURED: 0.706

* * *

tested on: Saccharomyces cerevisiae; assay: protein stability index of tFT-peptide fusion (C-terminal peptide) (PSI (0-1 scale)); higher = more stable (slower turnover); details: genetic background: cdc34-1; temperature: 37 C
List of protein stability index values.
ASSAY_METRIC: protein stability index

ENTRY_SEQUENCE: AFLCVFGFCFFV
VALUE_MEASURED: 0.423
//
ENTRY_SEQUENCE: FFCYFFEFFICG
VALUE_MEASURED: 0.326
//
ENTRY_SEQUENCE: YRGFFIGKLMLV
VALUE_MEASURED: 0.488
//
ENTRY_SEQUENCE: SFGLICFLILCG
VALUE_MEASURED: 0.218
//
ENTRY_SEQUENCE: SRNSSRYLLLVS
VALUE_MEASURED: 0.539
//
ENTRY_SEQUENCE: LGGVGTLVHCFV
VALUE_MEASURED: 0.615
//
ENTRY_SEQUENCE: LLPSPLLLYSLS
VALUE_MEASURED: 0.556
//
ENTRY_SEQUENCE: GWCLGFWCLLVC
VALUE_MEASURED: 0.0399

* * *

system: Saccharomyces cerevisiae; test: protein stability index of tFT-peptide fusion (C-terminal peptide) (PSI (0-1 scale)); higher = more stable (slower turnover); details: genetic background: wild type; temperature: 30 C
A collection of sequences and their measured protein stability index
ASSAY_METRIC: protein stability index

ENTRY_SEQUENCE: EHDKSPLSRKRQ [SFI1 C-terminal 12 aa]
ASSAYED_SYSTEM: Saccharomyces cerevisiae
ASSAY_METRIC: protein stability index
VALUE_MEASURED: 0.703
//
ENTRY_SEQUENCE: HELSKDFSNLGI [NAM7 C-terminal 12 aa]
ASSAYED_SYSTEM: Saccharomyces cerevisiae
ASSAY_METRIC: protein stability index
VALUE_MEASURED: 0.683
//
ENTRY_SEQUENCE: KHKNILLFNNNT [YAL068W-A C-terminal 12 aa]
ASSAYED_SYSTEM: Saccharomyces cerevisiae
ASSAY_METRIC: protein stability index
VALUE_MEASURED: 0.686
//
ENTRY_SEQUENCE: DDQDAISNQEKK [EIS1 C-terminal 12 aa]
ASSAYED_SYSTEM: Saccharomyces cerevisiae
ASSAY_METRIC: protein stability index
VALUE_MEASURED: 0.701
//
ENTRY_SEQUENCE: PTCETTIDIDRI [ZRG17 C-terminal 12 aa]
ASSAYED_SYSTEM: Saccharomyces cerevisiae
ASSAY_METRIC: protein stability index
VALUE_MEASURED: 0.65
//
ENTRY_SEQUENCE: TAAQMLEVQNEA [ARI1 C-terminal 12 aa]
ASSAYED_SYSTEM: Saccharomyces cerevisiae
ASSAY_METRIC: protein stability index
VALUE_MEASURED: 0.702
//
ENTRY_SEQUENCE: EIVGRYVVETSK [ADH5 C-terminal 12 aa]
ASSAYED_SYSTEM: Saccharomyces cerevisiae
ASSAY_METRIC: protein stability index
VALUE_MEASURED: 0.682
//
ENTRY_SEQUENCE: GEDPYMDLMKEF [TPK3 C-terminal 12 aa]
ASSAYED_SYSTEM: Saccharomyces cerevisiae
ASSAY_METRIC: protein stability index
VALUE_MEASURED: 0.733
//
ENTRY_SEQUENCE: NKHDLHLRPGTY [YDR098C-A C-terminal 12 aa]
ASSAYED_SYSTEM: Saccharomyces cerevisiae
ASSAY_METRIC: protein stability index
VALUE_MEASURED: 0.658
//
ENTRY_SEQUENCE: EAQLSCNYEPLP [COS10 C-terminal 12 aa]
ASSAYED_SYSTEM: Saccharomyces cerevisiae
ASSAY_METRIC: protein stability index
VALUE_MEASURED: 0.673
//
ENTRY_SEQUENCE: RRVKSLKTSKKH [PAL2 C-terminal 12 aa]
ASSAYED_SYSTEM: Saccharomyces cerevisiae
ASSAY_METRIC: protein stability index
VALUE_MEASURED: 0.686
//
ENTRY_SEQUENCE: AIYPVLSEFRKM [SPT15 C-terminal 12 aa]
ASSAYED_SYSTEM: Saccharomyces cerevisiae
ASSAY_METRIC: protein stability index
VALUE_MEASURED: 0.706
//
ENTRY_SEQUENCE: PIKGGDKASSEL [ATG5 C-terminal 12 aa]
ASSAYED_SYSTEM: Saccharomyces cerevisiae
ASSAY_METRIC: protein stability index
VALUE_MEASURED: 0.688
//
ENTRY_SEQUENCE: IHCRSQNCLSLS [VBA4 C-terminal 12 aa]
ASSAYED_SYSTEM: Saccharomyces cerevisiae
ASSAY_METRIC: protein stability index
VALUE_MEASURED: 0.681
//
ENTRY_SEQUENCE: NDTEHVTLHTNT [YDL228C C-terminal 12 aa]
ASSAYED_SYSTEM: Saccharomyces cerevisiae
ASSAY_METRIC: protein stability index
VALUE_MEASURED: 0.688
//
ENTRY_SEQUENCE: KTGKEVRSGKQL [ATX1 C-terminal 12 aa]
ASSAYED_SYSTEM: Saccharomyces cerevisiae
ASSAY_METRIC: protein stability index
VALUE_MEASURED: 0.679
//
ENTRY_SEQUENCE: KTFSYKRPSTFY [RPL20A C-terminal 12 aa]
ASSAYED_SYSTEM: Saccharomyces cerevisiae
ASSAY_METRIC: protein stability index
VALUE_MEASURED: 0.732
//
ENTRY_SEQUENCE: IIDELEQIALQQ [BRE2 C-terminal 12 aa]
ASSAYED_SYSTEM: Saccharomyces cerevisiae
ASSAY_METRIC: protein stability index
VALUE_MEASURED: 0.748
//
ENTRY_SEQUENCE: IAKEHDKIPKFL [INA22 C-terminal 12 aa]
ASSAYED_SYSTEM: Saccharomyces cerevisiae
ASSAY_METRIC: protein stability index
VALUE_MEASURED: 0.672
//
ENTRY_SEQUENCE: LLSVHMYSSSLL [YNL019C C-terminal 12 aa]
ASSAYED_SYSTEM: Saccharomyces cerevisiae
ASSAY_METRIC: protein stability index
VALUE_MEASURED: 0.671
//
ENTRY_SEQUENCE: ALNTYSSGFEIA [GID10 C-terminal 12 aa]
ASSAYED_SYSTEM: Saccharomyces cerevisiae
ASSAY_METRIC: protein stability index
VALUE_MEASURED: 0.676
//
ENTRY_SEQUENCE: LPNVPTVAYVII [YNL319W C-terminal 12 aa]
ASSAYED_SYSTEM: Saccharomyces cerevisiae
ASSAY_METRIC: protein stability index
VALUE_MEASURED: 0.664
//
ENTRY_SEQUENCE: KAFFISKTLPCI [YLR112W C-terminal 12 aa]
ASSAYED_SYSTEM: Saccharomyces cerevisiae
ASSAY_METRIC: protein stability index
VALUE_MEASURED: 0.766
//
ENTRY_SEQUENCE: TVFASNSFGVYV [OST5 C-terminal 12 aa]
ASSAYED_SYSTEM: Saccharomyces cerevisiae
ASSAY_METRIC: protein stability index
VALUE_MEASURED: 0.709
//
ENTRY_SEQUENCE: KAMILTSYRYLE [CLP1 C-terminal 12 aa]
ASSAYED_SYSTEM: Saccharomyces cerevisiae
ASSAY_METRIC: protein stability index
VALUE_MEASURED: 0.677
//
ENTRY_SEQUENCE: NIIIIILYVYIH [MOR1 C-terminal 12 aa]
ASSAYED_SYSTEM: Saccharomyces cerevisiae
ASSAY_METRIC: protein stability index
VALUE_MEASURED: 0.228
//
ENTRY_SEQUENCE: DSNTGGIIASIF [YKL104W-A C-terminal 12 aa]
ASSAYED_SYSTEM: Saccharomyces cerevisiae
ASSAY_METRIC: protein stability index
VALUE_MEASURED: 0.696
//
ENTRY_SEQUENCE: VDGFNDALQLSK [HEM14 C-terminal 12 aa]
ASSAYED_SYSTEM: Saccharomyces cerevisiae
ASSAY_METRIC: protein stability index
VALUE_MEASURED: 0.708
//
ENTRY_SEQUENCE: PLLLVSHLNFAV [YIR020C-B C-terminal 12 aa]
ASSAYED_SYSTEM: Saccharomyces cerevisiae
ASSAY_METRIC: protein stability index
VALUE_MEASURED: 0.557
//
ENTRY_SEQUENCE: SIICIETNKAIR [HPM1 C-terminal 12 aa]
ASSAYED_SYSTEM: Saccharomyces cerevisiae
ASSAY_METRIC: protein stability index
VALUE_MEASURED: 0.757
//
ENTRY_SEQUENCE: AKEESSDSENET [CDC123 C-terminal 12 aa]
ASSAYED_SYSTEM: Saccharomyces cerevisiae
ASSAY_METRIC: protein stability index
VALUE_MEASURED: 0.703
//
ENTRY_SEQUENCE: CVAGAHFESLLD [YNL144W-A C-terminal 12 aa]
ASSAYED_SYSTEM: Saccharomyces cerevisiae
ASSAY_METRIC: protein stability index
VALUE_MEASURED: 0.744
//
ENTRY_SEQUENCE: KKKRNKNKKAGK [ETP1 C-terminal 12 aa]
ASSAYED_SYSTEM: Saccharomyces cerevisiae
ASSAY_METRIC: protein stability index
VALUE_MEASURED: 0.698
//
ENTRY_SEQUENCE: VMLFSSNHQALG [MAG2 C-terminal 12 aa]
ASSAYED_SYSTEM: Saccharomyces cerevisiae
ASSAY_METRIC: protein stability index
VALUE_MEASURED: 0.693
